test system: E. coli BW25113 micFp lux reporter; experiment: promoter activity interaction Z-score (Lux/OD deviation from empty-vector control); higher = stronger promoter induction by the compound; conditions: 1 µg/ml; genetic background: ΔsoxS
Readout Type: promoter activity interaction Z-score
Returns: the value as a bare number; no unit string appended.

// below: answered molecules
- Molecule: "CO[C@H]1/C=C/O[C@@]2(C)Oc3c(C)c(O)c4c(O)c(c(/C=N/N5CCN(C)CC5)c(O)c4c3C2=O)NC(=O)/C(C)=C\\C=C\\[C@H](C)[C@H](O)[C@@H](C)[C@@H](O)[C@@H](C)[C@H](OC(C)=O)[C@@H]1C [Rifampicin]"
  promoter activity interaction Z-score: -0.476
- Molecule: "NC1CONC1=O (centres undefined) [Cycloserine D]"
  promoter activity interaction Z-score: -0.0115
- Molecule: "O=C(N[C@H](CO)[C@H](O)c1ccc([N+](=O)[O-])cc1)C(Cl)Cl [Chloramphenicol]"
  promoter activity interaction Z-score: -0.534

Could you now look at the following molecule, please?
Q. Lookup: promoter activity interaction Z-score / E. coli BW25113 micFp lux reporter / CC1(C)S[C@@H]2[C@H](NC(=O)[C@H](N)c3ccc(O)cc3)C(=O)N2[C@H]1C(=O)O [Amoxicillin]
A. -0.05

// provenance: the supplement of paper PMC12282887
